# Tested Target: HLA-DP DPA1*01:03/DPB1*03:01 (Homo sapiens, UniProt P04440+P20036, A65V/A84D/A85E/E86D/F38Y/G113D/G114E/G40L/I94L/L37V/M105V/M116V/P115A/R125K/T199I)
# Assay Remarks: biochemical
# Assay type: binding
# Test Context: read-out: Binding capacity/IC50 (nM) DPA1*01:03 DPB1*03:01
Each record here notes measured IC50.
Response body: numeric value in nM, unit text excluded.

CC[C@H](C)[C@H](NC(=O)[C@H](CCSC)NC(=O)[C@@H](NC(=O)[C@H](CCC(N)=O)NC(=O)[C@H](Cc1c[nH]c2ccccc12)NC(=O)[C@H](CCCNC(=N)N)NC(=O)[C@H](CC(N)=O)NC(=O)[C@H](CCC(=O)O)NC(=O)[C@@H](N)CCSC)C(C)C)C(=O)N[C@H](C(=O)N[C@@H](Cc1c[nH]c2ccccc12)C(=O)N[C@@H](CCC(N)=O)C(=O)N[C@H](C(=O)N[C@@H](CC(=O)O)C(=O)N[C@@H](CCCNC(=N)N)C(N)=O)C(C)C)C(C)C
5840
CC[C@H](C)[C@H](NC(=O)[C@H](Cc1ccc(O)cc1)NC(=O)CNC(=O)[C@H](CO)NC(=O)[C@H](C)NC(=O)[C@@H](NC(=O)[C@H](Cc1c[nH]cn1)NC(=O)[C@@H](NC(=O)[C@H](C)NC(=O)[C@@H](NC(=O)[C@H](CC(C)C)NC(=O)[C@@H](NC(=O)[C@@H](NC(=O)[C@H](CCCCN)NC(=O)CNC(=O)[C@@H](N)CCC(=O)O)[C@@H](C)CC)[C@@H](C)CC)C(C)C)C(C)C)C(C)C)C(=O)N[C@@H](CCC(=O)O)C(N)=O
1990
CC(C)C[C@H](NC(=O)[C@H](CCCCN)NC(=O)[C@@H](NC(=O)[C@H](CC(C)C)NC(=O)[C@@H]1CCCN1C(=O)[C@@H]1CCCN1C(=O)[C@@H](NC(=O)[C@H](CC(N)=O)NC(=O)[C@@H](NC(=O)[C@H](Cc1ccccc1)NC(=O)[C@H](CCC(=O)O)NC(=O)[C@H](Cc1c[nH]c2ccccc12)NC(=O)[C@@H](N)CCC(=O)O)C(C)C)[C@@H](C)O)C(C)C)C(=O)N[C@@H](Cc1c[nH]c2ccccc12)C(=O)N[C@@H](Cc1ccc(O)cc1)C(N)=O
5710

Item: `CC[C@H](C)[C@H](NC(=O)[C@@H](NC(=O)[C@H](CCCCN)NC(=O)[C@@H](NC(=O)[C@@H]1CCCN1C(=O)[C@H](Cc1c[nH]c2ccccc12)NC(=O)[C@H](CCCNC(=N)N)NC(=O)CNC(=O)[C@H](C)NC(=O)[C@H](CC(C)C)NC(=O)[C@H](CCCCN)NC(=O)[C@H](CC(C)C)NC(=O)[C@@H](NC(=O)[C@H](Cc1ccccc1)NC(=O)[C@H](Cc1ccc(O)cc1)NC(=O)[C@H](C)NC(=O)[C@@H](NC(=O)[C@@H](N)CCC(=O)O)[C@@H](C)O)[C@@H](C)CC)C(C)C)C(C)C)C(N)=O` | IC50: 1020

----------
# Tested Target: HLA-DR DRB1*04:01 (Homo sapiens, UniProt P01903+P01911, A100K/A169T/F76Y/I96L/K127E/L162R/M171V/N62H/P40V/Q125Y/R42H/S133A/S149N/S66Y/V115G/V209L/W38E)
# Assay Remarks: biochemical
# Assay type: binding
# Test Context: read-out: Binding capacity/IC50 (nM) DRB1*04:01
Ends that are not written are not given here.
Returns: string. Value is y if measured IC50 is below 300 nM, and n if it is greater than or equal to it.

YAKMRSAHTNDVKQL-NH2 [RT(354-368)]
y
IVALIIAIVVWTIV-NH2 [vpu(13-26)]
n
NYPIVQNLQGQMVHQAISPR-NH2 [p17(131-132)/p24(1-18)]
y

**Query** For this substance, is IC50 lower than 300 nM? DEELLKAVRIIKILYQSNP-NH2 [rev(9-27)]
**Result** y

**Query** Lab note: IC50 threshold 300 nM. Does this substance come in strictly under it? SEELRSLYNTVATLYCVHQ-NH2 [p17(72-90)]
**Result** y

----------
# Tested Target: HLA-DR DRB1*11:01 (Homo sapiens, UniProt P01903+P01911, A100R/A169T/A87E/I96F/K41T/L162R/M171V/P40S/Q125H/Q178H/Q39Y/Q99D/R42S/S66Y/T262R/V115G/W38E)
# Sequence (P01903 26-254 limits assumed, other chains not shown): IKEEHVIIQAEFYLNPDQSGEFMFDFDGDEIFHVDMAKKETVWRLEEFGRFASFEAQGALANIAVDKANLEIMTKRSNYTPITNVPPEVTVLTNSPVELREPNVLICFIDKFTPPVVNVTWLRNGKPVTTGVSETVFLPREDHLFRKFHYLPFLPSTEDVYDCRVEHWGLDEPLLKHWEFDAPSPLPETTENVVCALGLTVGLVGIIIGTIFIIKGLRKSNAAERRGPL
# Assay Remarks: biochemical
# Assay type: binding
# Test Context: read-out: Binding capacity/IC50 (nM) DRB1*11:01
Ends that are not written are not given here.
Reported IC50 is given for each of the following substances.

Recorded results for 4 substances are shown here.
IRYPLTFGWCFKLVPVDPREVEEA-NH2 [nef(133-156)]
4540 nM
DEELLKAVRIIKILYQSNP-NH2 [rev(9-27)]
2120 nM
SEELRSLYNTVATLYCVHQ-NH2 [p17(72-90)]
1070 nM
YAKMRSAHTNDVKQL-NH2 [RT(354-368)]
1760 nM

Now take the following substance into account.
Reported IC50 of IVALIIAIVVWTIV-NH2 [vpu(13-26)] : 12700 nM
